- Tested on: chemokine receptor
- measurement notes: activity of separated cis/trans isomers (test not described)
- condition notes: cis versus trans isomer of the same example, separated by chromatography; values not given
reported property: relative activity of the separated isomers

Sample records with relative activity of the separated isomers:
{"compound": "C[C@H]1CN(C2CC(C)(C(=O)NCc3cc(C(F)(F)F)cc(C(F)(F)F)c3)C2)CC[C@@]12C=Cc1ccccc12 (stereo partly drawn) [Example 54 cis isomer]", "value measured": "more active isomer"}
{"compound": "CC(O)[C@]1(C(=O)NCc2cncc(C(F)(F)F)c2)C[C@@H](N2CC[C@@]3(C=Cc4ccccc43)[C@@H](C)C2)C1 (mixture of isomers) [Example 122 cis isomer]", "value measured": "more active isomer"}
{"compound": "CN(C1CCOCC1)C1CC(C(=O)NCc2cc(F)cc(C(F)(F)F)c2)(c2ccccc2)C1 (stereo not drawn) [Example 42 trans isomer]", "value measured": "active isomer"}
{"compound": "C[C@H]1CN(C2CC(C(=O)NCc3cc(C(F)(F)F)cc(C(F)(F)F)c3)C2)CC[C@@]12C=Cc1ccccc12 (stereo partly drawn) [Example 1 cis isomer]", "value measured": "more active isomer"}
{"compound": "CN(C1CCOCC1)C1CC(C(=O)NCc2cc(C(F)(F)F)cc(C(F)(F)F)c2)(c2ccccc2)C1 (stereo not drawn) [Example 41 cis isomer]", "value measured": "more active isomer"}

Consider now this further compound.
Report relative activity of the separated isomers, nothing else, for this compound: C[C@H]1CN(C2CC(CNC(=O)c3cc(C(F)(F)F)cc(C(F)(F)F)c3)(c3ccccc3)C2)CC[C@@]12C=Cc1ccccc12 (stereo partly drawn) [Example 43 cis isomer]
active isomer
